Reference for the values: patent US20120177664A1

Target: T1, A beta oligomer (synthetic A beta1-40, HCl form, 0.1 mg/ml in PBS, incubated at 37 degrees C for one hour) (UniProt P05067 672-711)
T1 construct: domain: A beta1-40; non-fibrous multimer of the peptide; also called A beta 1-40 oligomer
Experiment: SPR (Biacore 3000)
Description: The analysis was carried out by Surface Plasmon Resonance (SPR) using Biacore 3000 (GE Healthcare Sciences).
pKd: −log10 of the molar value.

| Binder | pKd |
| --- | --- |
| IR-062 antibody (antibody, mouse IgG2b, V domains shown, mouse IgG2b) VH: DVQLVESGGGLVQPGGSRKLSCAASGFTFSSFGMHWVRQAPEKGLEWVAYISSGSSTIYYADTVKGRFTISRDNPKNTLFLQMTSLRSEDTAMYYCARYYHYAMDYWGQGTSVTVSS VL: DVLMTQTPLSLPVSLGDQASISCRSSQSIVHSNGNTYLEWYLQKPGQSPKLLIYKVSNRFSGVPDRFSGSGSGTDFTLKISRVEAEDLGVYYCFQGSHVPPTFGGGTKLEIK | 6.44 |
| IR-079 antibody (antibody, mouse IgG2b, V domains shown, mouse IgG2b) VH: DVQLVESGGGLVQPGGSRKLSCAASGFTFSSFGMHWVRQAPEKGLEWVAYISSGSSTIYYADTVKGRFTISRDNPKNTLFLQMTSLRSEDTAMYYCARYGTLYYYAMDYWGQGTSVTVSS VL: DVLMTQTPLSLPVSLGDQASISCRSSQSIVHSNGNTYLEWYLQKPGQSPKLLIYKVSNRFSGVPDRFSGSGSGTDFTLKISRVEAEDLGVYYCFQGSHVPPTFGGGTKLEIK | 5.98 |
| IR-036 antibody (antibody, mouse IgG2b, V domains shown, mouse IgG2b) VH: QVTLKESGPGILQPSQTLSLTCSFSGFSLSTSGMGVSWIRQPSGKGLEWLAHIYWDDDKRYNPSLKSRLTISKDTSRNQVFLKITSVDTADTATYYCARRANYYGYGMDAMDYWGQGTSVTVSS VL: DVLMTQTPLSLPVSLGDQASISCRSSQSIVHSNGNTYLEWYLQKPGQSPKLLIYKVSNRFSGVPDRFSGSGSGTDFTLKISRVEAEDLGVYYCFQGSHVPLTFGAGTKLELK | 7.00 |
| IR-152 antibody (antibody, mouse IgG2b, V domains shown, mouse IgG2b) VH: DVQLVESGGGLVQPGGSRKLSCAASGFTFSSFGMHWVRQAPEKGLEWVAYISSGSSTIYYADTVKGRFTISRDNPKNTLFLQMTSLRSEDTAMYYCARGGHVGAMDYWGQGTSVTVSS VL: DVVMTQTPLSLPVSLGDQASISCRSSQSLVHSNGNTYLHWYLQKPGQSPKLLIYKVSNRFSGVPDRFSGSGSGTDFTLKISRVEAEDLGVYFCSQSTHVPWTFGGGTKLEIK | 7.23 |
| IR-037 antibody (antibody, mouse IgG1, V domains shown, mouse IgG1) VH: DVQLVESGGGLVQPGGSRKLSCAASGFTFSSFGMHWVRQAPEKGLEWVAYISSGSSTIYYADTVKGRFTISRDNPKNTLFLQMTSLRSEDTAMYYCARDGTMDYWGQGTSVTVSS VL: DAVMTQTPLSLPVSLGDQASISCRSSQSLENSNGNTYLNWYLQKPGQSPQLLIYRVSNRFSGVLDRFSGSGSGTDFTLKISRVEAEDLGVYFCLQVTHVPPTFGGGTKLEIK | 6.18 |
